The measured values listed here are drawn from patent US8487102B2.

Molecular target: Recombinant human NK3 (hNK3) receptor (Homo sapiens)
Construct: membrane preparations of the recombinant receptor
Sequence (P29371 1-465): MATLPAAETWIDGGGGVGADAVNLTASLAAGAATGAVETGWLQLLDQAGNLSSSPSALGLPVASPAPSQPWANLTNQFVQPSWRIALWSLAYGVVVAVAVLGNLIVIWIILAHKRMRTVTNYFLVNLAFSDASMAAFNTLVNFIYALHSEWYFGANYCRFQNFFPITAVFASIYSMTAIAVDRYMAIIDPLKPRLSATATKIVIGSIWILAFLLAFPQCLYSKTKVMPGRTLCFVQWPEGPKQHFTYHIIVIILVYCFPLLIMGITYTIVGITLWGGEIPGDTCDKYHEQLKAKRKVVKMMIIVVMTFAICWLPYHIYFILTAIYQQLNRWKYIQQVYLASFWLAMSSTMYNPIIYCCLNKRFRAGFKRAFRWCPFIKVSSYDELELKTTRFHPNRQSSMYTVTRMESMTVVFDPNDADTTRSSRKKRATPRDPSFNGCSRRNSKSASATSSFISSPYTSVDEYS
Test: NK3 receptor binding assay, [3H]SR142801 displacement
Conditions: hNK3 receptor membranes, [3H]SR142801 0.3 nM
Protocol: Recombinant human NK3 (hNK3) receptor affinity was determined in a 96 well plate assay, using [^3H]SR142801 (final concentration 0.3 nM) to radiolabel the hNK3 receptor in the presence of 10 concentrations of competing compound or buffer. Non specific binding was determined using 10 μM SB222200. Assay buffer consisted of Tris-HCl (50 mM, pH 7.4), BSA (0.1%), MnCl2 (4 mM) and phosphoramidon (1 μM). […]
pKi: −log10 of the molar value.
Please use Met whenever pKi is not below 7, and Not met whenever it is.

[[record]]
compound = "Cc1cc(F)ccc1-c1c(N(C)C(=O)C(C)(C)c2cc(C(F)(F)F)cc(C(F)(F)F)c2)cnc2c1cnn2CC(=O)N1CCCC1 [Example 34]"
category = "Met"

[[record]]
compound = "CCn1ncc2c(-c3ccc(F)cc3Cl)c(N(C)C(=O)C(C)(C)c3cc(C(F)(F)F)cc(C(F)(F)F)c3)cnc21 [Example 19]"
category = "Met"

[[record]]
compound = "CCn1ncc2c(-c3cc(CO)ccc3Cl)c(N(C)C(=O)C(C)(C)c3cc(C(F)(F)F)cc(C(F)(F)F)c3)cnc21 [Example 22]"
category = "Met"

[[record]]
compound = "CCn1ncc2c(-c3cccc(F)c3F)c(N(C)C(=O)C(C)(C)c3cc(C(F)(F)F)cc(C(F)(F)F)c3)cnc21 [Example 9]"
category = "Not met"

[[record]]
compound = "CCn1ncc2c(-c3ccccc3C)c(N(C)C(=O)C(C)(C)c3cc(C(F)(F)F)cc(C(F)(F)F)c3)cnc21 [Example 1]"
category = "Met"

[[record]]
compound = "CCn1ncc2c(-c3ccccc3)c(N(C)C(=O)C(C)(C)c3cc(C(F)(F)F)cc(C(F)(F)F)c3)cnc21 [Example 10]"
category = "Not met"

[[record]]
compound = "CCn1ncc2c(-c3ccc(F)cc3F)c(N(C)C(=O)C(C)(C)c3cc(C(F)(F)F)cc(C(F)(F)F)c3)cnc21 [Example 8]"
category = "Not met"

[[record]]
compound = "CCn1ncc2c(-c3ccccc3OC)c(N(C)C(=O)C(C)(C)c3cc(C(F)(F)F)cc(C(F)(F)F)c3)cnc21 [Example 15]"
category = "Not met"

[[record]]
compound = "CCn1ncc2c(-c3ccccc3Cl)c(N(C)C(=O)C(C)(C)c3cc(C(F)(F)F)cc(C(F)(F)F)c3)cnc21 [Example 3]"
category = "Met"

[[record]]
compound = "CCn1ncc2c(-c3cccc(Cl)c3)c(N(C)C(=O)C(C)(C)c3cc(C(F)(F)F)cc(C(F)(F)F)c3)cnc21 [Example 17]"
category = "Not met"

[[record]]
compound = "Cc1cc(F)ccc1-c1c(N(C)C(=O)C(C)(C)c2cc(C(F)(F)F)cc(C(F)(F)F)c2)cnc2c1cnn2C(=O)C1CC1 [Example 33]"
category = "Met"

[[record]]
compound = "Cc1cc(F)ccc1-c1c(N(C)C(=O)C(C)(C)c2cc(C(F)(F)F)cc(C(F)(F)F)c2)cnc2[nH]ncc12 [Example 28]"
category = "Met"

[[record]]
compound = "CCn1ncc2c(-c3ccsc3Cl)c(N(C)C(=O)C(C)(C)c3cc(C(F)(F)F)cc(C(F)(F)F)c3)cnc21 [Example 24]"
category = "Met"

